Entries annotated with measured pIC50
Test system: REL-A (p65) nuclear translocation, HeLa cells
Assay: REL-A (p65) nuclear translocation assay in HeLa cells (classical NF-kB signaling, TNF-α stimulated)
Format: cell-based
Settings: Homo sapiens, 0.5 h; HeLa cells, 10 ng/mL TNF-α for 30 minutes; read-out: REL-A HeLa Transloc Assay (IC50)
Procedure: Several assays were developed to profile the cellular activities of NIK inhibitors. (2) A second set of cell assay are used to define the selectivity of NIK inhibitors toward inhibition of classical vs. non-classical NF-kB signaling and rely on quantification of the nuclear translocation of p52 (NF-kB2) and REL-A (p65) using high content cellular imaging. […] Imaging is carried out using an Opera reader (Perkin Elmer) and data are analyzed with the aid of Acapella software (Perkin Elmer). […]
The value called pIC50 is obtained by taking minus log10 of the concentration in mol/L.

Data request, read-out pIC50, for CN1CC[C@@](O)(C#Cc2cccc(-n3nc(C(N)=O)c4ccc(-c5cnn(C)c5)nc43)c2)C1=O [Compound 156]
5.70

Data request, read-out pIC50, for CN1CC[C@@](O)(C#Cc2cccc(-n3nc(C(N)=O)c4ccc(C#N)cc43)c2)C1=O [Compound 46]
4.70

Data request, read-out pIC50, for COc1ccc2c(-c3cccc(C#C[C@]4(O)CCN(C)C4=O)c3)nc(C(N)=O)n2c1 [Compound 98]
5.20

Data request, read-out pIC50, for CN1CC[C@@](O)(C#Cc2cccc(-c3nc(C(N)=O)n4ccncc34)c2)C1=O [Compound 92]
4.70

Data request, read-out pIC50, for CN1CC[C@@](O)(C#Cc2cc(C#N)cc(-n3nc(C(N)=O)c4cccnc43)c2)C1=O [Compound 111]
4.70

Data request, read-out pIC50, for CN1CC[C@@](O)(C#Cc2cc(-n3nc(C(N)=O)c4cccnc43)ccc2F)C1=O [Compound 31]
4.70

Data request, read-out pIC50, for CN1CC[C@@](O)(C#Cc2cccc(-n3nc(C(N)=O)c4ccccc43)c2)C1=O [Compound 1]
4.70

Data request, read-out pIC50, for C[C@@H](O)c1ccc2c(c1)c(C(N)=O)nn2-c1cccc(C#C[C@]2(O)CCN(C)C2=O)c1 [Compound 43]
4.70

Data request, read-out pIC50, for CN1CC[C@@](O)(C#Cc2cccc(-c3nc(C(N)=O)n4cc(CN5CCOCC5)ccc34)c2)C1=O [Compound 100]
5.70

Data request, read-out pIC50, for CN1CC[C@@](O)(C#Cc2cccc(-n3nc(C(N)=O)c4cccnc43)c2)C1=O [Compound 53]
4.70

Data request, read-out pIC50, for CN1CC[C@@](O)(C#Cc2cccc(-n3nc(C(N)=O)c4c3CCN(c3ncccn3)C4)c2)C1=O [Compound 121]
4.70

Data request, read-out pIC50, for CN1CC[C@@](O)(C#Cc2cccc(-n3nc(C(N)=O)c4c3CCN(C(=O)OC(C)(C)C)C4)c2)C1=O [Compound 16]
4.70

Provenance of the data: patent US9605005B2
